- assayed_target: OsSMF1 (Oryza sativa, UniProt Q6ZLB0 1-436)
- Sequence: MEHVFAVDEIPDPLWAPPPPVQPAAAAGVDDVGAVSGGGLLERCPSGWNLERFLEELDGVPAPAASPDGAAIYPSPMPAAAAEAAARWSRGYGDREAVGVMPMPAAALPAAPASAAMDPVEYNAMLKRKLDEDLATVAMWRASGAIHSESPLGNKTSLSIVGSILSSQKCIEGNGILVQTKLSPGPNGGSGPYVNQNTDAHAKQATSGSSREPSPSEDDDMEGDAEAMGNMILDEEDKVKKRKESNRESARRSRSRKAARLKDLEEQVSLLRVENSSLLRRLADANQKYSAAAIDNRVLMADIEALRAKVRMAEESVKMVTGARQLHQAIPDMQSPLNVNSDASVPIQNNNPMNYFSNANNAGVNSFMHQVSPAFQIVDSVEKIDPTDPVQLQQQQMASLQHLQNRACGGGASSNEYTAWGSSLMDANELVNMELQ
- measurement_protocol: protein-binding microarray (RPBM); PBS, 2% BSA, 51.3 ng/ul salmon testes DNA, 50 uM zinc acetate, 200 nM TF, 25 C, 1 h; high values mean tight binding
- test_context: protein: recombinant; tags: N-terminal polyhistidine and DsRed monomer fusion (pET32a); chain copies: 2; label: CyDye5-dUTP incorporated in the synthesized complementary strand; 3' TTTTT single-stranded linker to array surface; dsDNA, one strand shown
The full ranking holds about 39,000 sequences; the median of “fluorescence intensity (a.u.)” is about 4,300, and the highest 2% start at about 39,000. The list comes from a sample in which the highest values are over-represented; it also holds close analogues and randomly drawn sequences.
measurement_type: binding signal

Examples with answers:
TTTTCATTTTAGTGCCACGTAAGCACCACATCGATGCCACCGGAGTCACCTAGTGCAG : 41200 fluorescence intensity (a.u.)
TTATTTTAGTGCCACGTAAGCGACACGTCGATGCCACATGCGGAGTCACCTAGTGCAG : 23000 fluorescence intensity (a.u.)
ATTCGTCTGAAAATTGTGTTTCACATGCGTCATTTCTCTACGGAGTCACCTAGTGCAG : 5080 fluorescence intensity (a.u.)
GTCCAGCCTCCTCCTCCGCTGACCTCCTCGCGGTCTTCTCCGGAGTCACCTAGTGCAG : 4520 fluorescence intensity (a.u.)

query: Fill in the blank: the reported binding signal of `AATCGATTCGAAATCCACACCGCTACTACGGCTAATTACGCGGAGTCACCTAGTGCAG` is ____.
result: 3870 fluorescence intensity (a.u.)

query: Fill in the blank: the reported binding signal of `ATGAGAGATAAGTAGATGACACATTCACAGTTGCTATAGTCGGAGTCACCTAGTGCAG` is ____.
result: 4040 fluorescence intensity (a.u.)

query: Fill in the blank: the reported binding signal of `CAGAGTTCCGTTCTGAATTTCTGGTGAGTCATCTGCTGAACGGAGTCACCTAGTGCAG` is ____.
result: 8920 fluorescence intensity (a.u.)

query: Fill in the blank: the reported binding signal of `GGCGCCGTGCCGTAATCCATCTCCTCCGTCGTCCAACCTCCGGAGTCACCTAGTGCAG` is ____.
result: 44900 fluorescence intensity (a.u.)

query: Fill in the blank: the reported binding signal of `GTGCGTTGTGTGGTTGGTTGGTCAGTGTCTGGGTGGTCACCGGAGTCACCTAGTGCAG` is ____.
result: 26000 fluorescence intensity (a.u.)

query: Fill in the blank: the reported binding signal of `CGAGCCGCCTCCGCCACCGCCGCCTCCTTCCGACCAGCCGCGGAGTCACCTAGTGCAG` is ____.
result: 3530 fluorescence intensity (a.u.)

query: Fill in the blank: the reported binding signal of `GCCACGGTCTCGTTGTGATGTTGTGATATTAGGTTCACTGCGGAGTCACCTAGTGCAG` is ____.
result: 46600 fluorescence intensity (a.u.)

query: Fill in the blank: the reported binding signal of `GAAGTGCCACGTAAGCACCACATCAATGCCACGTCAGATGCGGAGTCACCTAGTGCAG` is ____.
result: 38800 fluorescence intensity (a.u.)
